The following molecules are listed with their measured ΔR/ΔRAD2 OA values.
Experiment: Probe fluorescence ratio response to oleate:BSA complex, relative to ADIFAB2 (ΔR/ΔRAD2)
Type: binding
Conditions: fluorescence response (R-Ro) relative to ADIFAB2; oleate
Procedure: The intensity ratio (“R” value) for a given probe is determined. The ratio is calculated using the following formula: R=Fλ1/Fλ2 wherein, Fλ1, is the measured fluorescence intensities (intensity of sample with probe present minus intensity of sample without probe present) at wavelength 1 and Fλ2 is the measured fluorescence intensities (intensity of sample with probe present minus intensity of sample without probe present) at wavelength 2. […] Plates were prepared and read in two stages. […]
Form rule: numeric answer, no unit written next to it.

Would you please look over these solved cases?
L2P22E6: acrylodan-labeled rI-FABP-L72A mutein: M18 V, G31 A, F55 I, A73 W (protein, UniProt P02693 2-132, looked up, variant M18V G31A F55I L72A A73W, acrylodan label, acrylodan-labeled rI-FABP-L72A mutein: M18 V, G31 A, F55 I, A73 W) Fatty acid-binding protein, …: AFDGTWKVDRNENYEKFVEKMGINVVKRKLAAHDNLKLTITQEGNKFTVKESSNIRNIDVVFELGVDFAYSAWDGTELTGTWTMEGNKLVGKFKRVDNGKELIAVREISGNELIQTYTYEGVEAKRIFKKE    0.8
Y117S, L72A: acrylodan-labeled rI-FABP mutein Y117S, L72A (protein) AFDGTWKVDRNENYEKFMEKMGINVVKRKLGAHDNLKLTITQEGNKFTVKESSNFRNIDVVFELGVDFAYSAADGTELTGTWTMEGNKLVGKFKRVDNGKELIAVREISGNELIQTSTYEGVEAKRIFKKE    1.19
L1P3 D6: acrylodan-labeled rI-FABP mutein: Y14 L, L38 wt, L72 wt, Y117 wt (protein, UniProt P02693 2-132, looked up, variant Y14L, acrylodan label) Fatty acid-binding protein, …: AFDGTWKVDRNENLEKFMEKMGINVVKRKLGAHDNLKLTITQEGNKFTVKESSNFRNIDVVFELGVDFAYSLADGTELTGTWTMEGNKLVGKFKRVDNGKELIAVREISGNELIQTYTYEGVEAKRIFKKE    0.5
D74F, L72A: acrylodan-labeled rI-FABP mutein D74F, L72A (protein) AFDGTWKVDRNENYEKFMEKMGINVVKRKLGAHDNLKLTITQEGNKFTVKESSNFRNIDVVFELGVDFAYSAAFGTELTGTWTMEGNKLVGKFKRVDNGKELIAVREISGNELIQTYTYEGVEAKRIFKKE    0.51
L2P22H10: acrylodan-labeled rI-FABP-L72A mutein: M18 I, G31 WT, F55 G, A73 M (protein, UniProt P02693 2-132, looked up, variant M18I F55G L72A A73M, acrylodan label, acrylodan-labeled rI-FABP-L72A mutein: M18 I, G31 WT, F55 G, A73 M) Fatty acid-binding protein, …: AFDGTWKVDRNENYEKFIEKMGINVVKRKLGAHDNLKLTITQEGNKFTVKESSNGRNIDVVFELGVDFAYSAMDGTELTGTWTMEGNKLVGKFKRVDNGKELIAVREISGNELIQTYTYEGVEAKRIFKKE    0.6

Next item in the queue.
// field: ΔR/ΔRAD2 OA; key: L2P2E11: acrylodan-labeled rI-FABP-L72A mutein: M18 I, G31 F, F55 WT, A73 WT (protein, UniProt P02693 2-132, looked up, variant M18I G31F L72A, acrylodan label) Fatty acid-binding protein, …: AFDGTWKVDRNENYEKFIEKMGINVVKRKLFAHDNLKLTITQEGNKFTVKESSNFRNIDVVFELGVDFAYSAADGTELTGTWTMEGNKLVGKFKRVDNGKELIAVREISGNELIQTYTYEGVEAKRIFKKE ; value = 1.6

Provenance of the data: patent US20050244864A1
